Quick reference for pKd among some sequences
Target: HLA-A*31:01
Experiment: IEDB peptide-MHC binding, purified MHC/competitive/radioactivity; filed as Kd, often an IC50 or EC50 that approximates it; bounds were set here for any values at or beyond the usual limits of such assays
Conditions: source organism: HIV-1 M:B_HXB2R
Scale for pKd: -log10 of concentration given in mol/L; no unit attached.

Reference set, count: 3
# input Param readout= pKd; system= HLA-A*31:01; entry= RAKWNNTLK ; returns value.
# output 7.60

# input Next: MTKILEPFR
# output 7.09

# input Please answer likewise for YLAWVPAHK
# output 6.49

As a next step, examine the sequence that follows.
# input Find pKd (HLA-A*31:01) for the entry AVFIHNFKR
# output 8.28
